Target Desc: SERT (Homo sapiens, UniProt P31645)
Sequence (P31645 whole entry, species assumed): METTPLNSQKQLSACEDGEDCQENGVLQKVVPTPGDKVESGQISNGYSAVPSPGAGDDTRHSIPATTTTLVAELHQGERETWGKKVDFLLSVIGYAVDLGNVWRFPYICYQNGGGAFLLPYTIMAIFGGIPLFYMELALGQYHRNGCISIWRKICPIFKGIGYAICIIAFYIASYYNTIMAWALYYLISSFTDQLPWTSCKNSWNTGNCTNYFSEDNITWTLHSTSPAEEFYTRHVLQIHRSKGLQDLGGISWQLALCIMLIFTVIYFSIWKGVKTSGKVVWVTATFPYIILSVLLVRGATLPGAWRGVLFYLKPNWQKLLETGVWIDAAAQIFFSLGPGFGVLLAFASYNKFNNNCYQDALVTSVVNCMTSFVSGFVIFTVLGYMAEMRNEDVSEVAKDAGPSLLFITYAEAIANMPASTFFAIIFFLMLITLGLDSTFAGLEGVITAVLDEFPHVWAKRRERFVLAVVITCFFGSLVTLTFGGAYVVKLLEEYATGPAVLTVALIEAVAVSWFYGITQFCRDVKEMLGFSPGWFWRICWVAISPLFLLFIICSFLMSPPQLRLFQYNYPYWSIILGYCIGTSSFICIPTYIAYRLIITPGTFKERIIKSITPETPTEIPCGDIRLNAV
Procedure Summary: SAFETYscan Transporter SERT Blocker
Parameter Measured: IC50

compound_smiles=Cn1c(=O)c2c(c3cc(Nc4ccnc(F)c4Cl)ccc31)N[C@@H](C1CC1)C(F)(F)CO2 result="> 10 µM"

* * *

Target Desc: HTR2A (Homo sapiens)
Sequence (P28223 whole entry): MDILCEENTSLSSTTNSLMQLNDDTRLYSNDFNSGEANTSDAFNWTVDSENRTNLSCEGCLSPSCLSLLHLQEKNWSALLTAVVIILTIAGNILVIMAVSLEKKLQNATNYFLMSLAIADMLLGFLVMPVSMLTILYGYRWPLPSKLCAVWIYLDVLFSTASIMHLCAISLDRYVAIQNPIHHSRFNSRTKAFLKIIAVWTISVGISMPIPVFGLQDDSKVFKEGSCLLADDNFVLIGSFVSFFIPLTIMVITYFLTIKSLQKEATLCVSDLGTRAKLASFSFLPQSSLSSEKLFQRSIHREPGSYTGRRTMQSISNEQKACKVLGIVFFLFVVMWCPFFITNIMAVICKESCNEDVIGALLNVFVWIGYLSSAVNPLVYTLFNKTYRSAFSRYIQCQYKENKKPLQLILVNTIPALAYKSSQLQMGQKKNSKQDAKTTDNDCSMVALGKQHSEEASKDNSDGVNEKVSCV
Procedure Summary: SAFETYscan Calcium Flux HTR2A Antagonist
Parameter Measured: IC50

compound_smiles=Cn1c(=O)c2c(c3cc(Nc4ccnc(F)c4Cl)ccc31)N[C@@H](C1CC1)C(F)(F)CO2 parameter_measured=IC50 result="> 10 µM"

* * *

Target Desc: CNR2 (Homo sapiens)
Sequence (P34972 whole entry): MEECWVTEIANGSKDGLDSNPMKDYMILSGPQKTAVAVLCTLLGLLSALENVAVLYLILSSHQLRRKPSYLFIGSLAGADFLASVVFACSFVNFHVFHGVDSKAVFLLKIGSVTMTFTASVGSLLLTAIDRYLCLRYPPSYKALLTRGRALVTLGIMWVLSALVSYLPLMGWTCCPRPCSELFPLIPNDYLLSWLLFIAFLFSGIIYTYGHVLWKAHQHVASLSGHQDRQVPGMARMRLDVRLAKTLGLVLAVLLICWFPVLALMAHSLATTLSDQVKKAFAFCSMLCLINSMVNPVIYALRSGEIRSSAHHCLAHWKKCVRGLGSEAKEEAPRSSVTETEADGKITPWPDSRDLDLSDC
Procedure Summary: SAFETYscan cAMP CNR2 Agonist
Type: cell-based
Parameter Measured: EC50 (nM)

compound="Cn1c(=O)c2c(c3cc(Nc4ccnc(F)c4Cl)ccc31)N[C@@H](C1CC1)C(F)(F)CO2 [compound 17]" target_desc="CNR2 (Homo sapiens)" parameter_measured=EC50 unit_of_measure=nM numeric_result=1400

Origin of the recorded values: paper PMC10150366
